- Method: clinical
- Test Conditions: human, in vivo
Assay Readout: AUC (µg·h/mL)

Compound | Assay Readout | Assay Result
Cn1c(N)c(NC(=O)NCCN)c[n+]1CC1=C(C(=O)O)N2C(=O)[C@@H](NC(=O)/C(=N\OC(C)(C)C(=O)O)c3nsc(N)n3)[C@H]2SC1 | AUC | 1100

* * *

- Method: Pharmacokinetics of ceftolozane/tazobactam in healthy adults, single and multiple IV doses
- Test Conditions: human, plasma, intravenous, 1.5 g, t1/2, mean (CV %), 1.5 g q8h, healthy adults; Day 10

Compound | half-life
C[C@]1(Cn2ccnn2)[C@H](C(=O)O)N2C(=O)C[C@H]2S1(=O)=O | 1.03 h

* * *

- Method: clinical
- Test Conditions: both, human, in vivo
Assay Readout: AUC (ng·h/mL)

Compound | Assay Result
C[C@]1(Cn2ccnn2)[C@H](C(=O)O)N2C(=O)C[C@H]2S1(=O)=O | 26400
Cn1c(N)c(NC(=O)NCCN)c[n+]1CC1=C(C(=O)O)N2C(=O)[C@@H](NC(=O)/C(=N\OC(C)(C)C(=O)O)c3nsc(N)n3)[C@H]2SC1 | 87000

* * *

- Method: Pharmacokinetics of ceftolozane/tazobactam in healthy adults, single and multiple IV doses
- Test Conditions: human, plasma, intravenous, 1.5 g, Cmax, mean (CV %), 1.5 g q8h 1-hour infusion, healthy adults; Day 10
Assay Readout: Cmax (ng/mL)

Compound | Assay Result
C[C@]1(Cn2ccnn2)[C@H](C(=O)O)N2C(=O)C[C@H]2S1(=O)=O | 18000

* * *

- Method: clinical
- Test Conditions: both, human, in vivo, Half-Life

Compound | half-life / h
Cn1c(N)c(NC(=O)NCCN)c[n+]1CC1=C(C(=O)O)N2C(=O)[C@@H](NC(=O)/C(=N\OC(C)(C)C(=O)O)c3nsc(N)n3)[C@H]2SC1 [Ceftolozane] | 1.13

* * *

- Method: clinical
- Test Conditions: both, human, in vivo, 750 mg
Assay Readout: AUC(0-t) (µg·h/mL)

Compound | Readout Units | Assay Result
Cn1c(N)c(NC(=O)NCCN)c[n+]1CC1=C(C(=O)O)N2C(=O)[C@@H](NC(=O)/C(=N\OC(C)(C)C(=O)O)c3nsc(N)n3)[C@H]2SC1 | µg·h/mL | 511

* * *

- Method: clinical
- Test Conditions: both, human, in vivo, CL, median (range)
- Procedure: This was a Phase 1, multicenter, prospective, open-label study of 750 mg ceftolozane/tazobactam (as CXA-201) administered IV in male and female adult subjects with severe renal impairment (estimated CLCR<30 mL/min) and subjects with end-stage renal disease (ESRD) on hemodialysis (HD). […] Plasma concentrations of ceftolozane and tazobactam were measured prior to, during, and following administration of ceftolozane/tazobactam. […]
Assay Readout: clearance (mL/min)

Compound | Assay Result
Cn1c(N)c(NC(=O)NCCN)c[n+]1CC1=C(C(=O)O)N2C(=O)[C@@H](NC(=O)/C(=N\OC(C)(C)C(=O)O)c3nsc(N)n3)[C@H]2SC1 | 5
C[C@]1(Cn2ccnn2)[C@H](C(=O)O)N2C(=O)C[C@H]2S1(=O)=O | 40

* * *

- Method: clinical
- Test Conditions: human, in vivo, terminal elimination half-life (t1/2β)
Assay Readout: half-life

Compound | Assay Readout | Assay Result
Cn1c(N)c(NC(=O)NCCN)c[n+]1CC1=C(C(=O)O)N2C(=O)[C@@H](NC(=O)/C(=N\OC(C)(C)C(=O)O)c3nsc(N)n3)[C@H]2SC1 [Ceftolozane] | half-life | ~2.5 h
